Tested on: Teladorsagia circumcincta
Test: Compound is evaluated in vivo for anthelmintic activity against Ostertagia circumcincta (Os. c) parasite in sheep; activity at 0.1 mg/kg
Format: functional
Reported Property: Activity

| Compound | Activity |
| --- | --- |
| CC[C@H](C)[C@H]1O[C@@]2(C[C@@H]3C[C@@H](C/C=C(\C)[C@H](O[C@H]4C[C@H](OC)C(O[C@H]5C[C@H](OC)[C@@H](O)[C@H](C)O5)[C@H](C)O4)[C@@H](C)/C=C/C=C4\CO[C@@H]5[C@H](O)C(C)=C[C@@H](C(=O)O3)[C@]45O)O2)C[C@H](O)[C@@H]1C (some centres undefined) | >95% |
| CC[C@H](C)[C@H]1O[C@]2(C=C[C@@H]1C)C[C@@H]1C[C@@H](C/C=C(\C)[C@H](O[C@H]3C[C@H](OC)C(O[C@H]4C[C@H](OC)[C@@H](O)[C@H](C)O4)[C@H](C)O3)[C@@H](C)/C=C/C=C3\CO[C@@H]4[C@H](O)C(C)=C[C@@H](C(=O)O1)[C@]34O)O2 (some centres undefined) | >95% |
| CCC(C)C1O[C@]2(C=C[C@@H]1C)C[C@@H]1CC(C/C=C(\C)[C@@H](OC3C[C@H](OC)[C@@H](OC4C[C@H](OC)[C@@H](O)[C@H](C)O4)[C@H](C)O3)[C@@H](C)/C=C/C=C3\COC4[C@H](O)C(C)=CC(C(=O)O1)[C@]34O)O2 (some centres undefined) | >95% |

As a next step, examine the compound that follows.
Exercise: Would you kindly share the measured Activity for COC1CC(OC2C(C)OC(O[C@@H]3/C(C)=C/C[C@@H]4C[C@@H](C[C@]5(CC(O)[C@H](C)[C@@H](C(C)C)O5)O4)OC(=O)[C@@H]4C=C(C)[C@@H](O)[C@H]5OC/C(=C\C=C\[C@@H]3C)[C@]54O)CC2OC)OC(C)C1O (some centres undefined) ?
Solution: >95%
